Target: T1, TIGIT (T cell immunoreceptor with Ig and ITIM domains) (human, UniProt Q495A1 22-141, limits assumed)
T1 construct: also called hTIGIT; human TIGIT
T1 sequence (looked up): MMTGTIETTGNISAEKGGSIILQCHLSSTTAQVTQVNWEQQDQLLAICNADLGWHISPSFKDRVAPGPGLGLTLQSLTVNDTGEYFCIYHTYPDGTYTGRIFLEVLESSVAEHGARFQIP
Assay: SPR kinetics
reported property: Kd (nM)
Field: numeric (nM). Do not append units.

So for TIGIT-211-15 (antibody, V domains shown) VH: EVQLLESGGGLVQPGGSLRLSCAASGFTFSSAAMSWVRQAPGKGLEWVSGISPSGGITTYADSVKGRFTISRDNSKNTLYLQMNSLRAEDTAVYYCASLSRGYWGQGTLVTVSS VL: DIQMTQSPSSLSASVGDRVTITCQSSQSVYSNNELSWYQQKPGKAPKLLIYGTSYRYSGVPSRFSGSGSGTDFTLTISSLQPEDFATYYCSSWAGSRSGTVFGQGTKVEIK , the logged Kd turned out to be 301
